Ref: patent US8580794B2

TESTED TARGET: GST-Bc1-2 (Homo sapiens)
Sequence (P10415 whole entry): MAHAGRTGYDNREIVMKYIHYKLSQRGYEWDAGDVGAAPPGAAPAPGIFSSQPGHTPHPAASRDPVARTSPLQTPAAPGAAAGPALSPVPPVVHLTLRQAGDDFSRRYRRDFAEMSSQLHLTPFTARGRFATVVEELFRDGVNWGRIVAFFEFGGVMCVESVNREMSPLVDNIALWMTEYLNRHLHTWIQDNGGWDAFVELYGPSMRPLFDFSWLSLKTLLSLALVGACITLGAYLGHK
ASSAY SUMMARY: Time Resolved-Fluorescence Resonance Energy Transfer (TR-FRET) Bcl-2 binding assay with F-Bak peptide probe
SETTINGS: GST-Bcl-2 1 nM, F-Bak probe 100 nM, Tb-anti-GST 1 nM; '<' = below limit of detection; read-out: TR-FRET Bcl-2 Binding Ki
So I've got a bunch of compounds here, and I need their Ki values.

[ask] Item CC1(C)CCC(CN2CCN(c3ccc(C(=O)NS(=O)(=O)c4cnc(OCC5CCOCC5)c(Cl)c4)c(Oc4cnc5[nH]ccc5c4)c3)CC2)=C(c2ccc(Cl)cc2)C1 has what recorded Ki?
[reply] < 0.01 nM

[ask] Ok, now COCC(C)(C)CNc1ccc(S(=O)(=O)NC(=O)c2ccc(N3CCN(CC4=C(c5ccc(Cl)cc5)CC(C)(C)CC4)CC3)cc2Oc2cnc3[nH]ccc3c2)cc1[N+](=O)[O-]
[reply] 0.059 nM

[ask] Ok, now CC1(C)CCC(CN2CCN(c3ccc(C(=O)NS(=O)(=O)c4ccc(NCC56CC7CC(C5)C(O)C(C7)C6)c([N+](=O)[O-])c4)c(Oc4cnc5[nH]ccc5c4)c3)CC2)=C(c2ccc(Cl)cc2)C1 (stereo not shown) [Example 199]
[reply] < 0.01 nM

[ask] Ok, now CC1(C)CCC(CN2CCN(c3ccc(C(=O)NS(=O)(=O)c4cnc(OC[C@H]5CC[C@H](O)CC5)c(Cl)c4)c(Oc4cnc5[nH]ccc5c4)c3)CC2)=C(c2ccc(Cl)cc2)C1
[reply] < 0.01 nM

[ask] Ok, now CC(=O)N1CCC(Nc2ccc(S(=O)(=O)NC(=O)c3ccc(N4CCN(CC5=C(c6ccc(Cl)cc6)CC(C)(C)CC5)CC4)cc3Oc3cnc4[nH]ccc4c3)cc2[N+](=O)[O-])CC1
[reply] < 0.01 nM

[ask] Ok, now CC1(C)CCC(CN2CCN(c3ccc(C(=O)NS(=O)(=O)c4ccc(N[C@@H]5CC[C@H](N6CCOCC6)C5)c([N+](=O)[O-])c4)c(Oc4cnc5[nH]ccc5c4)c3)CC2)=C(c2ccc(Cl)cc2)C1
[reply] < 0.01 nM

[ask] Ok, now CC1(C)CCC(CN2CCN(c3ccc(C(=O)NS(=O)(=O)c4ccc(NCC5CCOCC5)c(S(F)(F)(F)(F)F)c4)c(Oc4cnc5[nH]ccc5c4)c3)CC2)=C(c2ccc(Cl)cc2)C1
[reply] 1.65 nM

[ask] Ok, now CN1CCN(Nc2ccc(S(=O)(=O)NC(=O)c3ccc(N4CCN(CC5=C(c6ccc(Cl)cc6)CC(C)(C)OC5)CC4)cc3Oc3cnc4[nH]ccc4c3)cc2[N+](=O)[O-])CC1
[reply] < 0.01 nM

[ask] Ok, now CN(C)CC(=O)N1CCO[C@H](CNc2ccc(S(=O)(=O)NC(=O)c3ccc(N4CCN(CC5=C(c6ccc(Cl)cc6)CC(C)(C)CC5)CC4)cc3Oc3cnc4[nH]ccc4c3)cc2[N+](=O)[O-])C1
[reply] < 0.01 nM

[ask] Ok, now CC1(C)CCC(CN2CCN(c3ccc(C(=O)NS(=O)(=O)c4ccc(NC5CCC6(CC5)OCCO6)c([N+](=O)[O-])c4)c(Oc4cnc5[nH]ccc5c4)c3)CC2)=C(c2ccc(Cl)cc2)C1
[reply] 0.076 nM

---

TESTED TARGET: GST-Bc1-2 (Homo sapiens)
ASSAY SUMMARY: Time Resolved-Fluorescence Resonance Energy Transfer (TR-FRET) Bcl-2 binding assay with F-Bak peptide probe
SETTINGS: GST-Bcl-2 1 nM, F-Bak probe 100 nM, Tb-anti-GST 1 nM; '<' = below limit of detection; read-out: TR-FRET Bcl-2 Binding Ki
So I've got a bunch of compounds here, and I need their Ki values.
Write it as a number; the unit pM goes unstated.

[ask] Item CC1(C)CCC(CN2CCN(c3ccc(C(=O)NS(=O)(=O)c4ccc(OCC5(C)CCOCC5)c([N+](=O)[O-])c4)c(Oc4cnc5[nH]ccc5c4)c3)CC2)=C(c2ccc(Cl)cc2)C1 [Example 221] has what recorded Ki?
[reply] 49

[ask] Ok, now CC1(C)CCC(CN2CCN(c3ccc(C(=O)NS(=O)(=O)c4ccc(NCC5CCOCC5)c(C#N)c4)c(Oc4cnc5[nH]ccc5c4)c3)CC2)=C(c2ccc(Cl)cc2)C1 [Example 110]
[reply] 557

[ask] Ok, now COCCNc1ccc(S(=O)(=O)NC(=O)c2ccc(N3CCN(CC4=C(c5ccc(Cl)cc5)CC(C)(C)CC4)CC3)cc2Oc2ccc3[nH]ccc3c2)cc1[N+](=O)[O-] [Example 20]
[reply] 181

[ask] Ok, now CN1CCC(F)(COc2ncc(S(=O)(=O)NC(=O)c3ccc(N4CCN(CC5=C(c6ccc(Cl)cc6)CC(C)(C)CC5)CC4)cc3Oc3cnc4[nH]ccc4c3)cc2Cl)CC1 [Example 269]
[reply] 16

[ask] Ok, now CC1(C)CCC(CN2CCN(c3ccc(C(=O)NS(=O)(=O)c4cnc(OCC5CCC(N(C6CC6)C6COC6)CC5)c(Cl)c4)c(Oc4cnc5[nH]ccc5c4)c3)CC2)=C(c2ccc(Cl)cc2)C1 (stereo not shown) [Example 329]
[reply] 30

[ask] Ok, now CC1(C)CCC(CN2CCN(c3ccc(C(=O)NS(=O)(=O)c4ccc(N[C@@H]5CCN(C(CF)CF)C5)c([N+](=O)[O-])c4)c(Oc4cnc5[nH]ccc5c4)c3)CC2)=C(c2ccc(Cl)cc2)C1 [Example 207]
[reply] 30

[ask] Ok, now COCCNc1ccc(S(=O)(=O)NC(=O)c2ccc(N3CCN(CC4=C(c5ccc(Cl)cc5)CC(C)(C)CC4)CC3)cc2Oc2cnc3[nH]ccc3c2)cc1S(=O)(=O)C(F)(F)F [Example 16]
[reply] 219

[ask] Ok, now CC1(C)CCC(CN2CCN(c3ccc(C(=O)NS(=O)(=O)c4ccc(N[C@H]5CC[C@H](N6CCOCC6)CC5)c([N+](=O)[O-])c4)c(Oc4ccc5[nH]ccc5c4)c3)CC2)=C(c2ccc(Cl)cc2)C1 [Example 19]
[reply] 226

---

TESTED TARGET: GST-Bc1-2 (Homo sapiens)
ASSAY SUMMARY: Time Resolved-Fluorescence Resonance Energy Transfer (TR-FRET) Bcl-2 binding assay with F-Bak peptide probe
SETTINGS: GST-Bcl-2 1 nM, F-Bak probe 100 nM, Tb-anti-GST 1 nM; '<' = below limit of detection; read-out: TR-FRET Bcl-2 Binding Ki
MEASURED ENDPOINT: pKi
Formally, pKi is defined as -log10 of the concentration c, with c in mol/L.

[ask] Can you look up pKi on GST-Bc1-2 (Homo sapiens) for CC1(C)CCC(CN2CCN(c3ccc(C(=O)NS(=O)(=O)c4ccc(N[C@H]5CCN(C6CC6)C5)c([N+](=O)[O-])c4)c(Oc4cnc5[nH]ccc5c4)c3)CC2)=C(c2ccc(Cl)cc2)C1 [Example 142] ?
[reply] 9.89

[ask] Ok, now CC1(C)CCC(CN2CCN(c3ccc(C(=O)NS(=O)(=O)c4ccc(O[C@@H]5CCN(C(CF)CF)C5)c([N+](=O)[O-])c4)c(Oc4cnc5[nH]ccc5c4)c3)CC2)=C(c2ccc(Cl)cc2)C1 [Example 235]
[reply] 10.64

[ask] Ok, now CC1(C)CCC(CN2CCN(c3ccc(C(=O)NS(=O)(=O)c4ccc(NCc5cccc(OC(F)F)c5)c([N+](=O)[O-])c4)c(Oc4cnc5[nH]ccc5c4)c3)CC2)=C(c2ccc(Cl)cc2)C1 [Example 187]
[reply] 10.10

[ask] Ok, now CC1(C)CCC(CN2CCN(c3ccc(C(=O)NS(=O)(=O)c4cnc(O[C@@H]5CCN(C(CF)CF)C5)c(Cl)c4)c(Oc4cnc5[nH]ccc5c4)c3)CC2)=C(c2ccc(Cl)cc2)C1 [Example 274]
[reply] 10.40

[ask] Ok, now CC1(C)CCC(CN2CCN(c3ccc(C(=O)NS(=O)(=O)c4cnc(OC[C@H]5CC[C@](O)(CO)CC5)c(Cl)c4)c(Oc4cnc5[nH]ccc5c4)c3)CC2)=C(c2ccc(Cl)cc2)C1 [Example 400]
[reply] 10.51

[ask] Ok, now CC1(C)CCC(CN2CCN(c3ccc(C(=O)NS(=O)(=O)c4cnc5c(c4)nnn5CC4CCOCC4)c(Oc4cnc5[nH]ccc5c4)c3)CC2)=C(c2ccc(Cl)cc2)C1 [Example 370]
[reply] 9.55

[ask] Ok, now CC1(C)CCC(CN2CCN(c3ccc(C(=O)NS(=O)(=O)c4cnc(OC5CCN(C6CCOCC6)CC5)c(C#N)c4)c(Oc4cnc5[nH]ccc5c4)c3)CC2)=C(c2ccc(Cl)cc2)C1 [Example 84]
[reply] 9.91

---

So I've got a bunch of molecules here, and I need their pKi values.
TESTED TARGET: GST-Bc1-2 (Homo sapiens)
ASSAY SUMMARY: Time Resolved-Fluorescence Resonance Energy Transfer (TR-FRET) Bcl-2 binding assay with F-Bak peptide probe
SETTINGS: GST-Bcl-2 1 nM, F-Bak probe 100 nM, Tb-anti-GST 1 nM; '<' = below limit of detection; read-out: TR-FRET Bcl-2 Binding Ki
pKi: −log10 of the molar value.

[ask] Can you look up pKi on GST-Bc1-2 (Homo sapiens) for CC1(C)CCC(CN2CCN(c3ccc(C(=O)NS(=O)(=O)c4ccc(N[C@@H]5CCN(CC#N)C5)c([N+](=O)[O-])c4)c(Oc4cnc5[nH]ccc5c4)c3)CC2)=C(c2ccc(Cl)cc2)C1 ?
[reply] > 11.00

[ask] Ok, now CC1(C)CCC(CN2CCN(c3ccc(C(=O)NS(=O)(=O)c4ccc(N[C@@H]5CCOC5)c([N+](=O)[O-])c4)c(Oc4cnc5[nH]ccc5c4)c3)CC2)=C(c2ccc(Cl)cc2)C1
[reply] > 11.00

[ask] Ok, now CC1(C)CCC(CN2CCN(c3ccc(C(=O)NS(=O)(=O)c4ccc(OCC5(F)CCOCC5)c([N+](=O)[O-])c4)c(Oc4cnc5[nH]ccc5c4)c3)CC2)=C(c2ccc(Cl)cc2)C1
[reply] > 11.00

[ask] Ok, now CC1(C)CCC(CN2CCN(c3ccc(C(=O)NS(=O)(=O)c4ccc(NC[C@H]5CN(C6COC6)CCO5)c([N+](=O)[O-])c4)c(Oc4cnc5[nH]ccc5c4)c3)CC2)=C(c2ccc(Cl)cc2)C1
[reply] > 11.00

[ask] Ok, now CN1CCC(COc2ccc(S(=O)(=O)NC(=O)c3ccc(N4CCN(CC5=C(c6ccc(Cl)cc6)CC(C)(C)CC5)CC4)cc3Oc3cnc4[nH]ccc4c3)cc2[N+](=O)[O-])CC1
[reply] > 11.00

[ask] Ok, now CC1(C)CCC(CN2CCN(c3ccc(C(=O)NS(=O)(=O)c4ccc(NCC5CN(C(CF)CF)CCO5)c([N+](=O)[O-])c4)c(Oc4cnc5[nH]ccc5c4)c3)CC2)=C(c2ccc(Cl)cc2)C1 (stereo not shown)
[reply] > 11.00

[ask] Ok, now CC1(C)CCC(CN2CCN(c3ccc(C(=O)NS(=O)(=O)c4ccc(N[C@H]5CCN(C6CCOCC6)C5)c([N+](=O)[O-])c4)c(Oc4cnc5[nH]ccc5c4)c3)CC2)=C(c2ccc(Cl)cc2)C1
[reply] > 11.00

[ask] Ok, now CC1(C)CCC(CN2CCN(c3ccc(C(=O)NS(=O)(=O)c4cnc(OCCC5CCOCC5)c(C#N)c4)c(Oc4cnc5[nH]ccc5c4)c3)CC2)=C(c2ccc(Cl)cc2)C1
[reply] 9.60

[ask] Ok, now CC1(C)CCC(CN2CCN(c3ccc(C(=O)NS(=O)(=O)c4ccc(NN5CCS(=O)(=O)CC5)c([N+](=O)[O-])c4)c(Oc4cnc5[nH]ccc5c4)c3)CC2)=C(c2ccc(Cl)cc2)C1
[reply] 10.46

[ask] Ok, now CC1(C)CCC(CN2CCN(c3ccc(C(=O)NS(=O)(=O)c4ccc(NCCCN5CCCC5)c([N+](=O)[O-])c4)c(Oc4cccc5[nH]c6ccccc6c45)c3)CC2)=C(c2ccc(Cl)cc2)C1
[reply] 9.82
